test system: A549 NSCLC; assay: NCI tumour cell line growth inhibition, 48 h
quantityName: TGI

The examples below pair each entry with its known result.
Cc1ccc([N+](=O)[O-])cc1S(=O)(=O)Nc1ccc(C2=NOC(c3ccccc3)C2)cc1 (stereo unspecified) = > 100 µM
OCc1ccc(N(Cc2ccc(F)cc2)C2CCC2)cc1Cl = 17.9 µM

Record for CCOC(=O)CCN1C(=O)c2ccc(NC(=O)C(=O)O)cc2S1(=O)=O under target or system A549 NSCLC: TGI reported as > 100 µM

N#Cc1cccc(Nc2ccccc2SSc2ccccc2Nc2cccc(C#N)c2)c1 on A549 NSCLC gives TGI = > 21.5 µM
